System: SF-268
Experiment: NCI-60 one-dose SRB screen (CNS Cancer)
Format: cell-based
Details: Homo sapiens, single dose 10 µM, 48 h, read-out: Growth inhibition percent (GI %)
measured.quantity: inhibition at 10 µM (%)
# output: bare number, implied unit %

Cc1ccc(-c2nn(-c3ccc(S(N)(=O)=O)cc3)cc2C(=O)OCC(=O)Nc2ccc(S(N)(=O)=O)cc2)cc1	10.3
Cc1ccc(-c2nn(-c3ccc(S(N)(=O)=O)cc3)cc2C(=O)OCC(=O)Nc2nnc(S(N)(=O)=O)s2)cc1	9.87
CCOC(=O)c1ccc(NC(=O)COC(=O)c2cn(-c3ccc(S(N)(=O)=O)cc3)nc2-c2ccc(C)cc2)cc1	55.4
Cc1ccc(-c2nn(-c3ccc(S(N)(=O)=O)cc3)cc2-c2n[nH]c(=S)[nH]2)cc1	9.56
CCOC(=O)c1ccc(NC(=O)COC(=O)c2cn(-c3ccc(S(N)(=O)=O)cc3)nc2-c2ccc(OC)cc2)cc1	28.5
CCOC(=O)c1ccc(NC(=O)COC(=O)c2cn(-c3ccc(S(N)(=O)=O)cc3)nc2-c2ccc(S(C)(=O)=O)cc2)cc1	5.8

Kindly consider the entry below.
For the compound NS(=O)(=O)c1ccc(NC(=O)COC(=O)c2cn(-c3ccc(S(N)(=O)=O)cc3)nc2-c2ccc(Br)cc2)cc1 , give its measured inhibition at 10 µM value. 34.8

----------
System: MCF-7 breast cancer cell line
Assay: In vitro cytotoxicity, MTT assay
Details: Homo sapiens, MCF7, read-out: IC50 (µM) ± SD cytotoxic activity, MCF-7, MTT, normal conditions
measured.quantity: IC50

COc1cccc2c1C(=O)c1c(O)c3c(c(O)c1C2=O)C[C@@](O)(C(=O)CO)C[C@@H]3O[C@H]1C[C@H](N)[C@H](O)[C@H](C)O1 [Doxorubicin, doxorubicin, reference compound]	11.6 µM

Kindly consider the entry below.
Enter recorded IC50 with MCF-7 breast cancer cell line for CCOC(=O)c1ccc(NC(=O)COC(=O)c2cn(-c3ccc(S(N)(=O)=O)cc3)nc2-c2ccc(C)cc2)cc1 [Compound 5b] here. 5.21 µM

----------
Tested on: HCC-2998
Experiment: NCI-60 one-dose SRB screen (Colon Cancer)
Assay type: cell-based
Settings: Homo sapiens, single dose 10 µM, 48 h, read-out: Growth inhibition percent (GI %)
Quick reference: inhibition at 10 µM of the listed items.

Cc1ccc(-c2nn(-c3ccc(S(N)(=O)=O)cc3)cc2C(=O)NNC(N)=S)cc1	< 5%

For the compound Cc1ccc(-c2nn(-c3ccc(S(N)(=O)=O)cc3)cc2-c2nnc(N)s2)cc1 , give its measured inhibition at 10 µM value. < 5%

For the compound NS(=O)(=O)c1ccc(NC(=O)COC(=O)c2cn(-c3ccc(S(N)(=O)=O)cc3)nc2-c2ccc(Br)cc2)cc1 , give its measured inhibition at 10 µM value. < 5%

For the compound CCOC(=O)c1ccc(NC(=O)COC(=O)c2cn(-c3ccc(S(N)(=O)=O)cc3)nc2-c2ccc(C)cc2)cc1 , give its measured inhibition at 10 µM value. 47%

For the compound CCOC(=O)c1ccc(NC(=O)COC(=O)c2cn(-c3ccc(S(N)(=O)=O)cc3)nc2-c2ccccc2)cc1 , give its measured inhibition at 10 µM value. 63.9%

For the compound NC(=S)NNC(=O)c1cn(-c2ccc(S(N)(=O)=O)cc2)nc1-c1ccc(Br)cc1 , give its measured inhibition at 10 µM value. < 5%

Values from paper PMC12454493
